# EXPERIMENT: Acute toxicity tests in mice
# TEST PARAMETERS: mouse, in vivo
MEASUREMENT NAME: LD50

Endpoint output: LD50 of C[n+]1ccc(SCC2=C(C(=O)[O-])N3C(=O)[C@@H](NC(=O)/C(=N\OC4(C(=O)O)CCC4)c4csc(N)n4)[C@H]3SC2)cc1 [compound of formula (Ib)] . Value?
> 1000 mg/kg
